# assay_remarks: Cmax in Sprague-Dawley rat at 5 mg/kg, po by LC/MS/MS analysis
# Assay type: ADME, organism-based
# Set-up: dose 5 mg/kg, route oral
# cond: in vivo
The reader will find reported Cmax values listed item by item below.
endpoint: Cmax (ng/mL)

mol_smiles	endpoint	units_label	measured
O=C(Nc1ccc(F)cc1)Nc1cccc(OCCCN2CCOCC2)c1	Cmax	ng/mL	123
O=C(Nc1ccccc1)Nc1cccc(OCCCN2CCOCC2)c1	Cmax	ng/mL	1570
O=C(Nc1ccc(OCCCN2CCOCC2)cc1)NC1CCCCC1	Cmax	ng/mL	669
O=C(Nc1ccc(C(F)(F)F)cc1)Nc1cccc(OCCCN2CCOCC2)c1	Cmax	ng/mL	5
O=C(Nc1ccc(Cl)cc1)Nc1cccc(OCCCN2CCOCC2)c1	Cmax	ng/mL	6
O=C(Nc1cccc(OCCCN2CCOCC2)c1)Nc1ccc(F)c(F)c1	Cmax	ng/mL	3
O=C(Nc1cccc(OCCCN2CCOCC2)c1)NC1CCCCC1	Cmax	ng/mL	102
O=C(Nc1cccc(OCCCN2CCOCC2)c1)Nc1ccc2c(c1)OCO2	Cmax	ng/mL	218
O=C(Cc1ccc(F)cc1)Nc1cccc(OCCCN2CCOCC2)c1	Cmax	ng/mL	48
O=C(Nc1ccc(OCCCN2CCOCC2)cc1)Nc1ccc(C(F)(F)F)cc1	Cmax	ng/mL	263

---

# target_under_test: Bifunctional epoxide hydrolase 2 (Homo sapiens)
# assay_remarks: Inhibition of human soluble epoxide hydrolase by fluorescent endpoint assay
pIC50: −log10 of the molar value.

compound	pIC50
O=C(Nc1ccc(OCCCN2CCOCC2)cc1)Nc1ccc(OC(F)(F)F)cc1	9.10
O=C(Cc1ccc(Cl)cc1)Nc1cccc(OCCCN2CCOCC2)c1	6.94
CN(C)c1cccc(NC(=O)Nc2cccc(OCCCN3CCOCC3)c2)c1	6.62
O=C(Cc1ccc(Cl)cc1)Nc1ccc(OCCCN2CCOCC2)cc1	6.85
O=C(Nc1ccc(OCCCN2CCOCC2)cc1)Nc1ccc(C(F)(F)F)cc1	9.10
O=C(Nc1ccc(F)c(OCCCN2CCOCC2)c1)NC1CCCCC1	8.19
O=C(CC12CC3CC(CC(C3)C1)C2)NC1CCCC(OCCCN2CCOCC2)C1 (configuration not stated)	8.28
O=C(Cc1ccc(F)cc1)Nc1cccc(OCCCN2CCOCC2)c1	6.26
O=C(Nc1ccccc1)Nc1ccc(F)c(OCCCN2CCOCC2)c1	7.09
O=C(Cc1ccc(OC(F)(F)F)cc1)Nc1ccc(F)c(OCCCN2CCOCC2)c1	6.84
O=C(Nc1ccccc1)Nc1cccc(OCCCN2CCOCC2)c1	7.42
O=C(Cc1ccc(C(F)(F)F)cc1)Nc1ccc(F)c(OCCCN2CCOCC2)c1	6.81
O=C(Cc1ccc(OC(F)(F)F)cc1)Nc1cccc(OCCCN2CCOCC2)c1	7.37
O=C(Nc1cccc(OCCCN2CCOCC2)c1)Nc1ccc(F)cc1F	6.92
O=C(Cc1ccc(C(F)(F)F)cc1)Nc1ccc(OCCCN2CCOCC2)cc1	7.27
O=C(CC12CC3CC(CC(C3)C1)C2)Nc1ccc(OCCCN2CCOCC2)cc1	8.89
O=C(Nc1cccc(OCCCN2CCOCC2)c1)Nc1c(Cl)cccc1Cl	5.00
O=C(Nc1cccc(OCCCN2CCOCC2)c1)Nc1ccc2c(c1)OCO2	7.48
O=C(Nc1ccc(OC(F)(F)F)cc1)Nc1ccc(F)c(OCCCN2CCOCC2)c1	9.10
O=C(Nc1ccc(C(F)(F)F)cc1)Nc1ccc(F)c(OCCCN2CCOCC2)c1	8.89
O=C(Cc1ccc(F)c(F)c1)Nc1cccc(OCCCN2CCOCC2)c1	6.49
O=C(Nc1ccc(OC(F)(F)F)cc1)Nc1cccc(OCCCN2CCOCC2)c1	8.10

---

# target_under_test: Bifunctional epoxide hydrolase 2 (Homo sapiens)
# assay_remarks: Inhibition of human soluble epoxide hydrolase by fluorescent endpoint assay
Each entry below carries its recorded IC50.

compound	IC50 (µM)
O=C(Cc1cccnc1)Nc1cccc(OCCCN2CCOCC2)c1	14
O=C(Nc1cccc(OCCCN2CCOCC2)c1)Nc1c(F)cc(F)cc1F	1.88
O=C(Nc1ccc(F)c(OCCCN2CCOCC2)c1)NC12CC3CC(CC(C3)C1)C2	0.0008
O=C(NC1CCCC(OCCCN2CCOCC2)C1)NC12CC3CC(CC(C3)C1)C2 (stereo unspecified)	0.0025
O=C(Nc1cccc(OCCCN2CCOCC2)c1)Nc1ccc(F)c(F)c1	0.011
CC(C)(C)NC(=O)Nc1cccc(OCCCN2CCOCC2)c1	1.04
O=C(Nc1ccc(F)cc1)Nc1cccc(OCCCN2CCOCC2)c1	0.014
O=C(Nc1cccnc1)Nc1cccc(OCCCN2CCOCC2)c1	5
O=C(Cc1ccc2c(c1)OCO2)Nc1cccc(OCCCN2CCOCC2)c1	0.365
O=C(Nc1ccc(OCCCN2CCOCC2)cc1)NC1CCCCC1	0.0054
O=C(Cc1ccc(OC(F)(F)F)cc1)Nc1ccc(OCCCN2CCOCC2)cc1	0.042

---

# assay_remarks: AUC (0 to 24 hrs) in Sprague-Dawley rat at 5 mg/kg, po by LC/MS/MS analysis
# Type: ADME, organism-based
# Design: time < 24 hr, dose 5 mg/kg, route oral
# cond: plasma
endpoint: log10(AUC(0-t) at 24 h) (log10 of the value in ng·h/mL)

mol_smiles	log10(AUC(0-t) at 24 h)
O=C(Nc1ccc(Cl)cc1)Nc1cccc(OCCCN2CCOCC2)c1	0.95
O=C(Nc1ccc(F)cc1)Nc1cccc(OCCCN2CCOCC2)c1	2.69
O=C(Nc1cccc(OCCCN2CCOCC2)c1)NC1CCCCC1	2.12
O=C(Nc1ccc(C(F)(F)F)cc1)Nc1cccc(OCCCN2CCOCC2)c1	0.90
O=C(Nc1cccc(OCCCN2CCOCC2)c1)Nc1ccc2c(c1)OCO2	2.88
O=C(Nc1ccc(OCCCN2CCOCC2)cc1)Nc1ccc(C(F)(F)F)cc1	3.02
O=C(Cc1ccc(F)cc1)Nc1cccc(OCCCN2CCOCC2)c1	1.76
O=C(Nc1cccc(OCCCN2CCOCC2)c1)Nc1ccc(F)c(F)c1	0.48
O=C(Nc1ccc(OCCCN2CCOCC2)cc1)NC1CCCCC1	2.94
O=C(Nc1ccccc1)Nc1cccc(OCCCN2CCOCC2)c1	3.55

---

# target_under_test: Bifunctional epoxide hydrolase 2 (Homo sapiens, UniProt P34913)
# Sequence (P34913 whole entry): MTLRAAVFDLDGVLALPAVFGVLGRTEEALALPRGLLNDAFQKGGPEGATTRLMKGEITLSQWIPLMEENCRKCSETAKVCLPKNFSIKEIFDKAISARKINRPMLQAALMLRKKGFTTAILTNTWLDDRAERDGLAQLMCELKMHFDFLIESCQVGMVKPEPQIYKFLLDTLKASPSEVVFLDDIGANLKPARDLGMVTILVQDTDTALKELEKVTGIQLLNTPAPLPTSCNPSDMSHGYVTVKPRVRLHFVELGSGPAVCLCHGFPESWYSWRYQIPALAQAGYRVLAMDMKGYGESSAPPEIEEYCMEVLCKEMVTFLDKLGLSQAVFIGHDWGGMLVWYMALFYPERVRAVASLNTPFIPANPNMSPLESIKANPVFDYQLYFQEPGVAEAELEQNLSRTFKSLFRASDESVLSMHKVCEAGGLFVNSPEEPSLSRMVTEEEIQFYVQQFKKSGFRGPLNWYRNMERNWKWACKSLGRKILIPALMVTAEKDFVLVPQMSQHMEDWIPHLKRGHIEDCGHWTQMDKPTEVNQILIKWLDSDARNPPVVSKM
# assay_remarks: Inhibition of human soluble epoxide hydrolase by fluorescent endpoint assay
Doc: threshold 10 nM (exclusive). Items with IC50 beneath it return True; others return False.

mol_smiles	class_name
O=C(Nc1ccc(Cl)cc1)Nc1cccc(OCCCN2CCOCC2)c1	True
O=C(Nc1ccc(Cl)cc1)Nc1ccc(F)c(OCCCN2CCOCC2)c1	True
CC(C)(C)CC(=O)Nc1cccc(OCCCN2CCOCC2)c1	False
O=C(Nc1ccccc1)Nc1ccc(OCCCN2CCOCC2)cc1	False
O=C(CC12CC3CC(CC(C3)C1)C2)Nc1ccc(F)c(OCCCN2CCOCC2)c1	True
O=C(Nc1ccc(F)cc1)Nc1ccc(F)c(OCCCN2CCOCC2)c1	False
O=C(Nc1ccc(Cl)cc1)Nc1ccc(OCCCN2CCOCC2)cc1	True
O=C(Cc1ccccc1)Nc1ccc(OCCCN2CCOCC2)cc1	False
O=C(Nc1ccc(C(F)(F)F)cc1)Nc1cccc(OCCCN2CCOCC2)c1	True
O=C(Nc1cccc(OCCCN2CCOCC2)c1)Nc1cccc(C(F)(F)F)c1	False
